These data points were gathered from patent US20250019453A1.

Target: T1, hIL2Rb-his (human, UniProt P14784 27-240)
T1 sequence: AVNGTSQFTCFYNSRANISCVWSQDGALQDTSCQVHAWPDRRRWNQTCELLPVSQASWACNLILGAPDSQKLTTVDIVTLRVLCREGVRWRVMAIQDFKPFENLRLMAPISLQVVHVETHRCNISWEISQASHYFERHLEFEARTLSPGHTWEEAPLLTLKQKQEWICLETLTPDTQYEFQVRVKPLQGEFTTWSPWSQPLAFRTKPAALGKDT
Test: SPR Biacore T200; Mono-Fc VHH captured on Protein A chip, hIL2Rb-his analyte; 1:1 Langmuir fit
Reported endpoint: kon

Past entries and their recorded results:
Binder | kon
hIL2Rb_VHH2 Mono-Fc VHH (Fc fusion, not shown: a dimerising Fc or GST) QVQLQESGGGLVQPGGSLRLSCVASGFTFSNYWIFWVRQAAGKGLEWLSTSNTGGDTTKYADSVKGRFTISRDSAKNTEYLQMNSLKPEDTAVYYCETGRCARSGGYQGTQVTVSS | 139000 M⁻¹ s⁻¹
hIL2Rb_VHH4 Mono-Fc VHH (Fc fusion, not shown: a dimerising Fc or GST) QVQLQESGGGSVQTGGSLRLSCAVSGYTTYSFNYMGWFRQAPGKEREGVAVIYTGGGSTLYADSVKGRFTISQDNAKNTVYLQMNSLKPEDTAMYYCAADDQRFASPLYAYFGYWGQGTQVTVSS | 600000 M⁻¹ s⁻¹
hIL2Rb_VHH1 Mono-Fc VHH (Fc fusion, not shown: a dimerising Fc or GST) QVQLQESGGGSVQAGGSLRLSCVGSGYTYDTSDMSWYRQAPGKEREFVSDIDSGDWAAYADAVKGRFTISRDNAKKTVYLQMNSLEPEDTAMYYCKASYWKWGKLNNFWGPGTQVTVSS | 1.98e+07 M⁻¹ s⁻¹

Turning now to a further binder:
Q) Give a short answer stating reported kon for hIL2Rb_VHH7 Mono-Fc VHH (Fc fusion, not shown: a dimerising Fc or GST) QVQLQESGGGSVQAGGSLRLSCAASGYEYCRIHMTWYRQGPGKEREFVSSIGSDGRKTYANSVTGRFTISRDNANHTVYLQMNSLSPEDTAMYYCKTEYLYGLGCPDGSAYWGQGTQVTVSS .
A) 2.86e+06 M⁻¹ s⁻¹
